Biological target: c-kit (Homo sapiens)
Construct: MO7e (human megakaryocytic leukemia cell line) which had been arrested for 20 hr; endogenous in cells; host or cells: MO7e human megakaryocytic leukemia cell line
Sequence (P10721 26-976): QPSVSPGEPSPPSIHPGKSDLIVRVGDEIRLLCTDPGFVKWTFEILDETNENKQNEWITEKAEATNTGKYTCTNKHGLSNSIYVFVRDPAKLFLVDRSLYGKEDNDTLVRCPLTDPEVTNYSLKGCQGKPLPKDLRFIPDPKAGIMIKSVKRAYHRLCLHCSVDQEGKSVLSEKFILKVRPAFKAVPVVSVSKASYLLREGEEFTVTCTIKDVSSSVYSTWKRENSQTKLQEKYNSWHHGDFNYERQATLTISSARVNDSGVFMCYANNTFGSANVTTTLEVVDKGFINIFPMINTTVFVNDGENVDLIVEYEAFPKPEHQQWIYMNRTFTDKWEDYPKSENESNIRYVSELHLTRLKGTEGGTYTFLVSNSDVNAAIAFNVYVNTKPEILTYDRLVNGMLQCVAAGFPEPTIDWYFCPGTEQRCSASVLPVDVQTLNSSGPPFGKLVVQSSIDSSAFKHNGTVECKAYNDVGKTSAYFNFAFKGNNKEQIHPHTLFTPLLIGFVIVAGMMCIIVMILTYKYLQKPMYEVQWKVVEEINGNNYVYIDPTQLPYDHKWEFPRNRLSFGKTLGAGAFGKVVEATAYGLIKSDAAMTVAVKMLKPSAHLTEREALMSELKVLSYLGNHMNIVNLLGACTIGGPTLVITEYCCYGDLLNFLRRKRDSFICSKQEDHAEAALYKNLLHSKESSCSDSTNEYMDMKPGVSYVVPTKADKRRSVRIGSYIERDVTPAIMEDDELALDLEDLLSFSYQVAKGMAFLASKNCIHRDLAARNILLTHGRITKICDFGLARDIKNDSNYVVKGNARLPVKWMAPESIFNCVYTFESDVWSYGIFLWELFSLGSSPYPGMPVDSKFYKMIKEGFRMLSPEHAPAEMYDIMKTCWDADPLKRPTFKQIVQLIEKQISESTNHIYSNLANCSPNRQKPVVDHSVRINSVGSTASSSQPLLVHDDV
Assay: Inhibitory activity against c-kit autophosphorylation (MO7e cells, h-SCF)
Type: cell-based
Conditions: Mo7e, figure in parentheses in −( ); at 1000 nM
Binary classification by inhibition at 1 µM, with 20% as an inclusive lower bound for True; all other cases are False.

These solved cases illustrate the format of a correct answer.
[
  {
    "compound": "COc1cc2nccc(Oc3ccc(NC(=S)NC(=O)c4ccc(I)cc4)c(F)c3)c2cc1OC [Example 967]",
    "assay.target": "c-kit (Homo sapiens)",
    "label": "False"
  },
  {
    "compound": "COc1cc2ncnc(Oc3ccc(NC(=S)NC(=O)c4ccc(Cl)cc4)cc3)c2cc1OC [Example 985]",
    "assay.target": "c-kit (Homo sapiens)",
    "label": "True"
  },
  {
    "compound": "COc1ccc(C(=O)NC(=S)Nc2ccc(Oc3ccnc4cc(OC)c(OC)cc34)cc2F)cc1 [Example 969]",
    "assay.target": "c-kit (Homo sapiens)",
    "label": "False"
  },
  {
    "compound": "COc1cc2ncnc(Oc3ccc(NC(=S)NC(=O)C4(C)CCCCC4)cc3)c2cc1OC [Example 1193]",
    "assay.target": "c-kit (Homo sapiens)",
    "label": "False"
  },
  {
    "compound": "COc1cc2nccc(Oc3ccc(NC(=S)NC(=O)c4ccc(F)cc4F)c(Cl)c3)c2cc1OC [Example 1202]",
    "assay.target": "c-kit (Homo sapiens)",
    "label": "False"
  }
]

Assess whether reported inhibition at 1 µM for COc1cc2ncnc(Oc3ccc(NC(=O)OCCSc4ccc(C)cc4)c(Cl)c3)c2cc1OC [Example 141] sits at 20% or higher.
True

Assess whether reported inhibition at 1 µM for COc1cc2nccc(Oc3cc(C)c(NCCOc4c(OC)cccc4OC)cc3C)c2cc1OC [Example 896] sits at 20% or higher.
True

Assess whether reported inhibition at 1 µM for COc1cc2nccc(Oc3ccc(NC(=O)Oc4ccccc4C(C)(C)C)cc3)c2cc1OC [Example 300] sits at 20% or higher.
True

Assess whether reported inhibition at 1 µM for COc1cc2nccc(Oc3ccc(NC(=S)NC(=O)N4c5ccccc5CCc5ccccc54)cc3)c2cc1OC [Example 1047] sits at 20% or higher.
False

Assess whether reported inhibition at 1 µM for COc1cc2nccc(Oc3ccc(NC(=S)NC(=O)c4ccccc4OC)cc3Cl)c2cc1OC [Example 923] sits at 20% or higher.
True
